# measurement.target: human PAH with the R408W mutation (Homo sapiens, UniProt P00439, R408W)
# Construct: expressed in transfected cells
# Sequence (P00439 whole entry R408W): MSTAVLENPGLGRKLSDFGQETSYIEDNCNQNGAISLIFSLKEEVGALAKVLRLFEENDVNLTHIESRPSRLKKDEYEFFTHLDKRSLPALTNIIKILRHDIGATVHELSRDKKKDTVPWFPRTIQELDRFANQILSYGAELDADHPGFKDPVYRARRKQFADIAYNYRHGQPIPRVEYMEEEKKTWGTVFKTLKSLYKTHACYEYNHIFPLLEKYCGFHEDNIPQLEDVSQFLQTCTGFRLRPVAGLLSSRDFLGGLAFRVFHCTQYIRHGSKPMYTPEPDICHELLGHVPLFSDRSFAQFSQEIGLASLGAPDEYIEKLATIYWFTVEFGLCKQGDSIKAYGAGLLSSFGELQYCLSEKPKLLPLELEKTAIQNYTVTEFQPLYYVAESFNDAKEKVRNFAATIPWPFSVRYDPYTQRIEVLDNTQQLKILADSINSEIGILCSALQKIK
# procedure.summary: Cell Based Phenylalanine Flux Assay
# test.conditions: A375 cells expressing human R408W PAH; 24 hrs compound incubation; 13C-Tyrosine by LC-MS; average where tested multiple times; read-out: AC50
measurement.name: AC50

CCn1ncnc1C(=O)N1CCc2[nH]cnc2[C@H]1c1nc2ccccc2s1
< 500 nM
O=C(c1n[nH]c2ccccc12)N1CCc2[nH]cnc2[C@H]1c1nc2ccccc2s1
500 to 1000 nM
Cc1nn(C)cc1-c1nnc(C(=O)N2CCc3[nH]cnc3[C@H]2c2nc3ccccc3s2)o1
< 500 nM
O=C(c1nnc(C2CC2)o1)N1CCc2[nH]cnc2[C@H]1c1nc2ccccc2s1
< 500 nM
O=C(c1cnn2cc(F)ccc12)N1CCc2[nH]cnc2[C@H]1c1nc2ccccc2[nH]1
500 to 1000 nM
O=C(CCC1CC1)N1CCc2[nH]cnc2[C@@H]1c1nc2ccc(Cl)cc2[nH]1
1000 to 5000 nM
C[C@H]1CN(C(=O)c2nnc(-c3ccccn3)o2)[C@@H](c2nc3ccccc3s2)c2nc[nH]c21
1000 to 5000 nM
Cc1nc(C)c(C(=O)N2CCc3[nH]cnc3[C@H]2c2nc3ccccc3s2)o1
< 500 nM

Given the entry O=C(c1nnc(C2CC(F)(F)C2)o1)N1CCc2[nH]cnc2[C@@H]1c1nc2c(F)cccc2s1 , what AC50 was observed with human PAH with the R408W mutation (Homo sapiens, UniProt P00439, R408W)?
1000 to 5000 nM

Given the entry O=C(c1nnc(-c2ccc(F)cc2F)o1)N1CCc2[nH]cnc2[C@@H]1c1nc2ccccc2s1 , what AC50 was observed with human PAH with the R408W mutation (Homo sapiens, UniProt P00439, R408W)?
500 to 1000 nM

Given the entry c1ccc2sc([C@H]3c4nc[nH]c4CCN3Cc3nccs3)nc2c1 , what AC50 was observed with human PAH with the R408W mutation (Homo sapiens, UniProt P00439, R408W)?
1000 to 5000 nM

Given the entry O=C(c1ocnc1C1CC1)N1CCc2[nH]cnc2[C@@H]1c1nc2ccccc2s1 , what AC50 was observed with human PAH with the R408W mutation (Homo sapiens, UniProt P00439, R408W)?
1000 to 5000 nM

Given the entry O=C(c1nnc(-c2cnn(CC(F)(F)F)c2)o1)N1CCc2[nH]cnc2[C@H]1c1nc2c(F)cccc2s1 , what AC50 was observed with human PAH with the R408W mutation (Homo sapiens, UniProt P00439, R408W)?
500 to 1000 nM
